Measured values drawn from patent US20260116991A1 for this set.

Molecular target: biotinylated labeled human GPC3 protein (produced in-house) (human, UniProt P51654 25-559, limits assumed, biotinylated (Dojindo, Cat. No. LK03); sites not stated)
Assay: ELISA, biotinylated human GPC3 protein
// OD450 at 0.28 nM lookup, one value per entry
Enter your answer as a number in OD450; do not include the unit.

# count of solved cases: 2
>  <Binder>
hAb007LH1L1c (antibody, human IgG1, V domains shown, Humanized F3.81.19; VH H1 + VL L1c; expressed as human IgG1) VH: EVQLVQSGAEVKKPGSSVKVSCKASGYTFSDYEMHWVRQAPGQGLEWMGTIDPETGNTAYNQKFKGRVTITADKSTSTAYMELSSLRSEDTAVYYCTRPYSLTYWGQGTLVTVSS VL: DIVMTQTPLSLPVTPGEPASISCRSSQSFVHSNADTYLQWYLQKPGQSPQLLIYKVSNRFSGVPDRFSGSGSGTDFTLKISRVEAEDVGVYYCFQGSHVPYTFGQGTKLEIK

>  <Value units>
OD450

>  <OD450 at 0.28 nM>
0.718

$$$$
>  <Binder>
hAb006LH3L1e (antibody, human IgG1, V domains shown, Humanized F3.38.7; VH H3 + VL L1e; expressed as human IgG1) VH: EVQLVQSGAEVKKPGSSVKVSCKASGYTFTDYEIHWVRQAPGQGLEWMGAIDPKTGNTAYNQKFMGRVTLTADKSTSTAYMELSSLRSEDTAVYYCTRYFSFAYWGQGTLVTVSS VL: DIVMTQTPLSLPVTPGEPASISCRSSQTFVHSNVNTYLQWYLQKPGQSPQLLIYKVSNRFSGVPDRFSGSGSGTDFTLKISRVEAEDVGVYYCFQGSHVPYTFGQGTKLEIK

>  <Value units>
OD450

>  <OD450 at 0.28 nM>
1.23

$$$$

What measured OD450 at 0.28 nM goes with hAb006LH3L1d (antibody, human IgG1, V domains shown, Humanized F3.38.7; VH H3 + VL L1d; expressed as human IgG1) VH: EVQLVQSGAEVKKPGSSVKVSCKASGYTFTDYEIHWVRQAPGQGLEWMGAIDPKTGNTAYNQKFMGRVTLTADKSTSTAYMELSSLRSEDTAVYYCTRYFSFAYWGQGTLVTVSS VL: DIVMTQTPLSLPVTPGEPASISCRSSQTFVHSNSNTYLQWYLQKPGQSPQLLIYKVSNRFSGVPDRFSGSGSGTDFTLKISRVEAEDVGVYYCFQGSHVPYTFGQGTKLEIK ?
1.11

I have this binder here, hAb006LH3L1c (antibody, human IgG1, V domains shown, Humanized F3.38.7; VH H3 + VL L1c; expressed as human IgG1) VH: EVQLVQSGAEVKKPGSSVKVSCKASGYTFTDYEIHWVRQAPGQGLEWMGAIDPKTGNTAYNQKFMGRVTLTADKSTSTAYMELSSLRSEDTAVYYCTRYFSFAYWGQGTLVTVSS VL: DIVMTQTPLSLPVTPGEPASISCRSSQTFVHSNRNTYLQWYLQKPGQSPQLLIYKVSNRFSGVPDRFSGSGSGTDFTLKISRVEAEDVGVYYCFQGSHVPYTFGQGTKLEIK , and I need its recorded OD450 at 0.28 nM.
1.3

Sample hAb007LH1L1e (antibody, human IgG1, V domains shown, Humanized F3.81.19; VH H1 + VL L1e; expressed as human IgG1) VH: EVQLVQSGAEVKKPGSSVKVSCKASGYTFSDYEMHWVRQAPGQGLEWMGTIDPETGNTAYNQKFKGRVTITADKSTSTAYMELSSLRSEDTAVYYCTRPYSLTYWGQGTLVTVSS VL: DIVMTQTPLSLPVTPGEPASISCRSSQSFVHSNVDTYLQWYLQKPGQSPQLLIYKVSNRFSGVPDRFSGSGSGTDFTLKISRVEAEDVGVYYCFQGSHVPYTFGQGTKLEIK — what was its OD450 at 0.28 nM?
0.248

Using the record for hAb007LH1L1d (antibody, human IgG1, V domains shown, Humanized F3.81.19; VH H1 + VL L1d; expressed as human IgG1) VH: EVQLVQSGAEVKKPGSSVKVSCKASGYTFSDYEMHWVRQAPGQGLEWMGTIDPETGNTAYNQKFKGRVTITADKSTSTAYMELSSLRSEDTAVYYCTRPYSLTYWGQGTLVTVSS VL: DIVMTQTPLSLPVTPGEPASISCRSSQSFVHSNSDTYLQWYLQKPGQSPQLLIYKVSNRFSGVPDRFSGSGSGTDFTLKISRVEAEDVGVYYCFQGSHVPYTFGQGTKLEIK , report its OD450 at 0.28 nM.
0.503

// query OD450 at 0.28 nM value for entry GC33 IgG (antibody, V domains shown, Control antibody expressed as complete IgG; also called codrituzumab) VH: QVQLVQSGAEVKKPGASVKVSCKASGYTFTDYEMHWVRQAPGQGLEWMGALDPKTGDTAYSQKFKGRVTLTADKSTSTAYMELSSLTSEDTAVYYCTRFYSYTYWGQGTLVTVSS VL: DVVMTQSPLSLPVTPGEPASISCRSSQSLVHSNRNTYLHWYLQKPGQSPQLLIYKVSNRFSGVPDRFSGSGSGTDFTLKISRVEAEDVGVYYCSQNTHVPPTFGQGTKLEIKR
0.993
